Target or system: MAGI1_2, Q96QZ7
Sequence (Q96QZ7 456-580): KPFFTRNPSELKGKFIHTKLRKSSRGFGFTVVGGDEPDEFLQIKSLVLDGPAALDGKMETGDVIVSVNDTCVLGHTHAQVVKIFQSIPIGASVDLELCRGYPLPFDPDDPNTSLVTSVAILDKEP
Run description: holdup assay
Parameters: key: below the threshold = too weak to quantify, mostly under pKd 3.1 to 4
Applied conditions: plain residues with an end cap or a label only (N-terminal biotin on a linker: ado-ado)

| Binder | pKd |
| --- | --- |
| SKQFDKNAYV [CLDN10, P78369] | below the threshold |
| PEKVSNTTVV [IGSF5, Q9NSI5] | 3.54 |
| PGKKPEDSRV [SLCO2B1, O94956] | below the threshold |
